Record set: pIC50 | Vascular endothelial growth factor receptor 2 (Homo sapiens) | literature, multiple sources.
pIC50: −log10 of the molar value.

Worked cases, pIC50 given:
> print(dat)
                            chemical.smiles  measured.attribute  recorded.measurement
1  COc1cc2nccc(Oc3ccc(NC(=O)N4CC(F)C4)c(Cl)c3F)c2cc1C(N)=O               pIC50          6.70 to 7.30
2  O=C(Nc1cccc(Oc2cc(-c3ccn(CCO)n3)ncn2)c1)Nc1ccc(Cl)c(C(F)(F)F)c1               pIC50                < 5.00

pIC50 lookup needed for CCCS(=O)(=O)Nc1ccc(F)c(C(=O)c2c[nH]c3ncc(-c4ccc(S(=O)(=O)NC)cc4)cc23)c1F , thanks.
≥ 5.00

Could you tell me which pIC50 is on file for CCOc1ccn(-c2ccc(F)cc2)c(=O)c1C(=O)Nc1ccc(Oc2ccnc3cc(OCCCN4CCC(C)(N)CC4)c4c(c23)OCCO4)c(F)c1 ?
≥ 7.30

So what's the measured pIC50 for this one? Fc1ccc(CNc2ccc(Cc3c[nH]c4ncncc34)c(F)n2)nc1
≥ 5.00

So what's the measured pIC50 for this one? CCOC(=O)c1ncn(-c2cnc3ccc(N(CC4CC4)c4cc(OC)cc(OC)c4)cc3n2)c1C
< 6.00

For the molecule C(=NNc1ncnc2nn3ccccc3c12)c1c[nH]c2ccccc12 , what pIC50 is on record?
< 5.00

Fill in: pIC50 of C=CC(=O)Nc1cccc(-c2cccc3cnc(Nc4ccc(N5CCN(CCO)CC5)cc4F)nc23)c1 is ___
6.30 to 7.00

====

Listing of IC50 toward Vascular endothelial growth factor receptor 2 (Homo sapiens, UniProt P35968), each taken from a published source.

> print(dat)
                            chemical.smiles                           target.of.assay  measured.attribute  recorded.measurement
1  COc1cc(OC)cc(N(Cc2cccc(CN)n2)c2ccc3ncc(-c4ccc(N)nc4)nc3c2)c1  Vascular endothelial growth factor receptor 2 (Homo sapiens, UniProt P35968)                IC50              0.309 µM
2  COCCOc1cnc2c(Oc3ccc(NC(=O)c4c(C)n(C)c(C)c(C5=CCOCC5)c4=O)cc3F)ccnc2c1  Vascular endothelial growth factor receptor 2 (Homo sapiens, UniProt P35968)                IC50              > 0.3 µM
3  O=C(Nc1ccc(Oc2ccnc(NC(=O)C3CC3)c2)cc1Cl)NC1CC1  Vascular endothelial growth factor receptor 2 (Homo sapiens, UniProt P35968)                IC50             0.0092 µM

Proceeding to the next compound to report its IC50.
Missing value: IC50, Vascular endothelial growth factor receptor 2 (Homo sapiens, UniProt P35968), entry CCCCS(=O)(=O)Nc1cccc(C(=O)c2c[nH]c3ncc(-c4cnn(C)c4)cc23)c1 . Fill in?
≤ 10 µM

====

// read-out IC50, gathered for Vascular endothelial growth factor receptor 2 (Homo sapiens) from published studies

Some compounds with recorded IC50:
> print(dat)
                                   compound                           target.of.assay  recorded.measurement
1  C[C@@H](Nc1ncnc2[nH]c(-c3ccc(NC(=O)CCCCC(=O)NO)cc3)cc12)c1ccccc1  Vascular endothelial growth factor receptor 2 (Homo sapiens)        100 to 1000 nM
2  Cc1ccc(NC(=O)c2cccc(C(F)(F)F)c2)cc1C(=O)Nc1cnc(Nc2ccc(S(=O)(=O)CCCN3CCCC3)cc2)nc1  Vascular endothelial growth factor receptor 2 (Homo sapiens)               14.2 nM

Give IC50 (Vascular endothelial growth factor receptor 2 (Homo sapiens)) of the following compound: Cc1cc(F)ccc1S(=O)(=O)Nc1ccc(F)c(C(=O)c2c[nH]c3ncc(Cl)cc23)c1F
≤ 10000 nM

Kindly state the measured IC50 obtained for C=CC(=O)Nc1cc2c(Nc3ccc(Br)cc3F)ncnc2cc1OCC1CCN(C(N)=O)CC1 with Vascular endothelial growth factor receptor 2 (Homo sapiens).
136 nM

Find the measured IC50: item C[C@@H](O)[C@@H](C)Nc1nc(Nc2ccc(F)c(NC(=O)N=S(C)(C)=O)c2)ncc1Br , target or system Vascular endothelial growth factor receptor 2 (Homo sapiens).
300 nM

Give the reported IC50 for C[C@@H](O)[C@@H](C)Nc1nc(Nc2ccc(NC(=O)N=S(C)(C)=O)cc2)ncc1Br (system: Vascular endothelial growth factor receptor 2 (Homo sapiens)).
120 nM

Please tell me: IC50 of FC(F)(F)c1cccc(Nc2nc3c(-c4ccccc4)nccn3n2)c1 , system Vascular endothelial growth factor receptor 2 (Homo sapiens)?
3000 to 50000 nM

GET /values?readout=IC50&system=Vascular endothelial growth factor receptor 2 (Homo sapiens)&item= O=C(c1c(F)ccc(NS(=O)(=O)c2ccc(-c3cnco3)s2)c1F)c1c[nH]c2ncc(Cl)cc12
≤ 10000 nM

I'm curious: which IC50 was measured for COc1cc(CNc2ncc(Cc3c[nH]c4ncncc34)cn2)c(F)cn1 tested on Vascular endothelial growth factor receptor 2 (Homo sapiens)?
≤ 10000 nM

// map CC(C)n1cc(C(=O)Nc2ccc(Oc3ccnc4cc(OCCCN(C)C5CCC5)c5c(c34)OCCO5)c(F)c2)c(=O)n(-c2ccc(F)cc2)c1=O to recorded IC50 (system: Vascular endothelial growth factor receptor 2 (Homo sapiens))
500 to 5000 nM
